Tested on: Venturia inaequalis
Experiment: in vivo preventive test on Venturia test (apples)
Conditions: Venturia inaequalis, 240 h, read-out: Efficacy in % found, 0.5 ppm a.i., apples, 10 days after inoculation
readout_type: pest or weed control at 0.5 ppm (%)
Answers are plain numbers, in %.

>>> df
                                   molecule               target  scale_unit  assay_value
0  CCC[C@@H]1CC(C)(C)c2cccc(NC(=O)c3cccnc3C(F)F)c21  Venturia inaequalis           %            0

I need pest or weed control at 0.5 ppm for every entry listed below, if you could help.
1. CCCC1CC(C)(C)c2cccc(NC(=O)c3cccnc3C(F)F)c21 (centres unmarked)
2. O[C@@H](c1cccnc1)c1c(-c2ccc(Cl)cc2F)noc1-c1ccc(F)cc1F
3. CCC1CC(C)(C)c2cccc(NC(=O)c3cccnc3C(F)F)c21 (centres unmarked)
4. CC(O)(Cn1cncn1)c1ccc(Oc2ccc(Cl)cc2)cc1C(F)(F)F (centres unmarked)

RESULT:
0
11
18
34

----------
Test system: Alternaria solani
Assay: in vivo preventive test on Alternaria test (tomatoes)
Settings: 1 ppm a.i., 3 days after inoculation
Could you please report measured Efficacy in % found for the items listed next?
Answers are plain numbers, in %.

                                   compound  assay_value
0  O[C@@H](c1cccnc1)c1c(-c2ccc(Cl)cc2F)noc1-c1ccc(F)cc1F [1.104]            0
1  CCC1CC(C)(C)c2cccc(NC(=O)c3cccnc3C(F)F)c21 (stereo not shown) [(I-3)]           40
2  CC(O)(Cn1cncn1)c1ccc(Oc2ccc(Cl)cc2)cc1C(F)(F)F (stereo not shown) [1.084]           15

QUERY: # query: Efficacy in % found of entry CCCC1CC(C)(C)c2cccc(NC(=O)c3cccnc3C(F)F)c21 (stereo not shown) [(I-5)]
RESULT: 0

----------
Tested on: Phakopsora pachyrhizi
Assay: in vivo preventive test on Phakopsora test (soybeans)
Settings: Phakopsora pachyrhizi, 168 h, 0.5 ppm a.i., 7 days after inoculation, read-out: Efficacy in % found
Could you please report measured pest or weed control at 0.5 ppm for the items listed next?
Answers are plain numbers, in %.

Please review the entries below; each comes with its answer.
In [3]: df
Out[3]:
                                   compound  scale_unit  assay_value
0  CCC1CC(C)(C)c2cccc(NC(=O)c3cccnc3C(F)F)c21 (stereo not shown) [(I-3)]           %           65
1  CC1(C)N=C(c2cnc3ccccc3c2)c2ccccc2C1(F)F [15.090]           %            0
2  CC[C@@H]1CC(C)(C)c2cccc(NC(=O)c3cccnc3C(F)F)c21 [(I-4)]           %           85

Here is the next item to consider.
QUERY: # query: pest or weed control at 0.5 ppm of entry CC(O)(Cn1cncn1)c1ccc(Oc2ccc(Cl)cc2)cc1C(F)(F)F (stereo not shown) [1.084]
RESULT: 8

----------
Test system: Phakopsora pachyrhizi
Test: in vivo preventive test on Phakopsora test (soybeans)
Settings: Phakopsora pachyrhizi, 168 h, 1 ppm a.i., 7 days after inoculation, read-out: Efficacy in % found
Could you please report measured pest or weed control at 1 ppm for the items listed next?
Numbers only, in %.

Please review the entries below; each comes with its answer.
                                   compound                   readout_type  scale_unit  assay_value
0  O[C@@H](c1cccnc1)c1c(-c2ccc(Cl)cc2F)noc1-c1ccc(F)cc1F  pest or weed control at 1 ppm           %            0
1  CC(O)(Cn1cncn1)c1ccc(Oc2ccc(Cl)cc2)cc1C(F)(F)F (stereo not shown)  pest or weed control at 1 ppm           %            0
2   CC1(C)N=C(c2cnc3ccccc3c2)c2ccccc2C1(F)F  pest or weed control at 1 ppm           %            0

Here is the next item to consider.
QUERY: # query: pest or weed control at 1 ppm of entry CCC1CC(C)(C)c2cccc(NC(=O)c3cccnc3C(F)F)c21 (stereo not shown)
RESULT: 84

----------
Test system: Botrytis cinerea
Experiment: in vivo preventive test on Botrytis test (beans)
Settings: 0.5 ppm a.i., 2 days after inoculation
Could you please report measured Efficacy in % found for the items listed next?

Please review the entries below; each comes with its answer.
In [3]: df
Out[3]:
                                   molecule            target  assay_value
0  CCCC1CC(C)(C)c2cccc(NC(=O)c3cccnc3C(F)F)c21 (centres unmarked)  Botrytis cinerea           0%
1   CC1(C)N=C(c2cnc3ccccc3c2)c2ccccc2C1(F)F  Botrytis cinerea           0%
2  CCC[C@@H]1CC(C)(C)c2cccc(NC(=O)c3cccnc3C(F)F)c21  Botrytis cinerea           0%
3  O[C@@H](c1cccnc1)c1c(-c2ccc(Cl)cc2F)noc1-c1ccc(F)cc1F  Botrytis cinerea          15%

Here is the next item to consider.
QUERY: Form field: Efficacy in % found recorded for `CC[C@@H]1CC(C)(C)c2cccc(NC(=O)c3cccnc3C(F)F)c21` with Botrytis cinerea (enter value)
RESULT: 8%

----------
Could you please report measured Efficacy in % found for the items listed next?
System: Alternaria solani
Experiment: in vivo preventive test on Alternaria test (tomatoes)
Details: 0.25 ppm a.i., 3 days after inoculation
Express your answer as a number followed by its unit.

>>> print(df.to_string())
                                   molecule  assay_value
0  O[C@@H](c1cccnc1)c1c(-c2ccc(Cl)cc2F)noc1-c1ccc(F)cc1F           0%
1  CC[C@@H]1CC(C)(C)c2cccc(NC(=O)c3cccnc3C(F)F)c21           8%
2  CC(O)(Cn1cncn1)c1ccc(Oc2ccc(Cl)cc2)cc1C(F)(F)F (centres unmarked)           8%
3  CCC1CC(C)(C)c2cccc(NC(=O)c3cccnc3C(F)F)c21 (centres unmarked)          15%

Here is the next item to consider.
QUERY: # query: Efficacy in % found of entry `CCC[C@@H]1CC(C)(C)c2cccc(NC(=O)c3cccnc3C(F)F)c21`
RESULT: 0%
